Form field: residual activity (one value per entry).
# studyTarget: CDK6/cyclin D1 (Homo sapiens) (UniProt P24385+Q00534)
# experimentDescription: Inhibition of human CDK6/cycD1 expressed in Sf9 cells at 100 uM; values are per cent of control

| structureSmiles | residual activity |
| --- | --- |
| COc1ccc(C2=C(c3ccc(OC)cc3)C(=O)NC2=O)cc1 | 100% |
| COc1ccc(C2=C(c3ccccc3)C(=O)NC2=O)cc1 | 87% |
| COc1ccc(C2=C(c3cc(OC)c(OC)c(OC)c3)C(=O)NC2=O)cc1O | 86% |

Any idea what residual activity came out for O=C1NC(=O)C(c2c[nH]c3ccccc23)=C1c1ccc(Cl)cc1 on CDK6/cyclin D1 (Homo sapiens) (UniProt P24385+Q00534)?
92%

Any idea what residual activity came out for COc1ccc(C2=C(c3cc(OC)c(OC)c(OC)c3)C(=O)NC2=O)cc1 on CDK6/cyclin D1 (Homo sapiens) (UniProt P24385+Q00534)?
78%

Any idea what residual activity came out for COc1cc(C2=C(c3cc[nH]c3)C(=O)NC2=O)cc(OC)c1OC on CDK6/cyclin D1 (Homo sapiens) (UniProt P24385+Q00534)?
71%
